# procedureText: Human plasma pharmacokinetics of thiamphenicol in healthy volunteers
# Type: in vivo
# conditionsUsed: human, plasma, po, 1500 mg/day, oral 1500 mg/day, Day 1, read-out: Tmax median(range)
reportedProperty: Tmax (h)
Respond numerically; units are h and should not be typed.

Q: Look up Tmax for this compound: `CS(=O)(=O)c1ccc([C@@H](O)[C@@H](CO)NC(=O)C(Cl)Cl)cc1`
A: 2.5

###

# procedureText: Human plasma pharmacokinetics of thiamphenicol in healthy volunteers
# Assay type: in vivo
# conditionsUsed: human, plasma, po, 750 mg/day, oral 750 mg/day, Day 13, plasma
reportedProperty: Cmax (ng/mL)
Respond numerically; units are ng/mL and should not be typed.

Q: Look up Cmax for this molecule: `CS(=O)(=O)c1ccc([C@@H](O)[C@@H](CO)NC(=O)C(Cl)Cl)cc1`
A: 6550
